assayed target: hNAMPT protein (Homo sapiens (Human))
Sequence (P43490 whole entry): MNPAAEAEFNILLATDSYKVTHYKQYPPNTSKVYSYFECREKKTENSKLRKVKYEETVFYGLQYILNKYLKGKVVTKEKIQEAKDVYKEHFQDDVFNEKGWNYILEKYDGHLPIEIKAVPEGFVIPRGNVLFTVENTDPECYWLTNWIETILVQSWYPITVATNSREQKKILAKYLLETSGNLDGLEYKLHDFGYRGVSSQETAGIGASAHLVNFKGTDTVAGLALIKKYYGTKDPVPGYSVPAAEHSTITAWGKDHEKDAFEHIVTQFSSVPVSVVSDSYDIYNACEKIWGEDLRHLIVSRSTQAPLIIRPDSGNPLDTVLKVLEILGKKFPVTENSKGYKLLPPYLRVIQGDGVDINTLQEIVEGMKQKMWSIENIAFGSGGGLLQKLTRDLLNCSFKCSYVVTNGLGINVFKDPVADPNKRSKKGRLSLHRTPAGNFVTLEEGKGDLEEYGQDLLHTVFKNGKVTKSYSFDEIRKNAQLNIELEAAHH
assay remarks: NAMPT enzyme assay (TR-FRET/HTRF, BodiPY ligand, anti 6His-Tb)
Format: binding
measurement parameters: compound concentration 1 μM; read-out: Percent Inhibition
Values of inhibition at 1 µM greater than or equal to 40% map to criterion met; values below map to criterion not met.

Query: For this compound, is measured inhibition at 1 µM 40% or higher? COc1cccc(-c2nc3cc(C(=O)NCCc4cccnc4)ccc3nc2N2CCC(O)CC2)c1 [Compound I-67]
Reply: criterion met

Query: For this compound, is measured inhibition at 1 µM 40% or higher? Nc1ccc(CCCNC(=O)c2ccc3nc(N4CCOCC4)c(-c4ccc(F)cc4)nc3c2)cn1 [Compound I-362]
Reply: criterion met

Query: For this compound, is measured inhibition at 1 µM 40% or higher? CC(C)(C)OC(=O)N1CCC(C2CCN(c3nc4ccc(C(=O)NCCCn5ccnc5)cc4nc3-c3ccccc3)CC2)CC1 [Compound I-188]
Reply: criterion met

Query: For this compound, is measured inhibition at 1 µM 40% or higher? O=C(c1ccc2nc(-c3ccc(F)cc3)c(-c3ccc(F)cc3)nc2c1)N1CC(n2cccn2)C1 [Compound I-249]
Reply: criterion met

Query: For this compound, is measured inhibition at 1 µM 40% or higher? O=C(NCCc1cccnc1)c1ccc2nc(-c3ccc(F)cc3)c(-c3ccc(F)cc3)nc2c1 [Compound I-269]
Reply: criterion met

Query: For this compound, is measured inhibition at 1 µM 40% or higher? O=C(c1ccc2nc(-c3ccc(F)cc3)c(-c3ccc(F)cc3)nc2c1)N1CCOC(c2cccnc2)C1 (stereo not shown) [Compound I-155]
Reply: criterion not met

Query: For this compound, is measured inhibition at 1 µM 40% or higher? O=C(NCCc1ncc[nH]1)c1ccc2nc(-c3ccc(F)cc3)c(-c3cccc(Cl)c3)nc2c1 [Compound I-376]
Reply: criterion not met
